- System: TTK
- experimental-conditions: concentration: 1 μM, replicates: in singlicate; n = 1;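 note: KINOMEscan kinase panel screen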
Note to self: use YES only for %Inh readings below 30%; a reading exactly at 30% still gets NO.

Below are worked cases with known answers.
>>> print(df.to_string())
                                   molecule  group
0  Cc1ccccc1CC(=O)N1CCc2cc(-c3cn(C)c4ncnc(N)c34)ccc21    YES
1  NCCC(NC(=O)c1cc(Br)c(-c2ccnc3[nH]ccc23)s1)c1ccccc1.O=C(O)C(F)(F)F.O=C(O)C(F)(F)F (centres unmarked)    YES
2  Nc1ncnc2scc(-c3ccc(NC(=O)Cc4cc(F)ccc4F)cc3)c12.O=C(O)C(F)(F)F    YES
3  CC(C)NCC(Cc1ccccc1)NC(=O)c1cc(Br)c(-c2ccnc3[nH]ccc23)s1.Cl.Cl (centres unmarked)     NO
4  O=C(O)C(F)(F)F.O=c1[nH]ccc2nc(N[C@@H]3CCNC3)nc(Nc3ccc4c(c3)S(=O)(=O)CC4)c12     NO

Exercise: # check: %Inh < 30% for `CNc1nccc(-c2ccc3c(N)n[nH]c3c2)n1`
Key: NO

Exercise: Same thing, different molecule: `Cc1cc(-c2ccnc(Nc3cccc(C#N)c3)n2)cc(C)c1O`
Key: NO

Exercise: Same thing, different molecule: Cl.Cl.NC(CNC(=O)c1cc(Br)c(-c2ccnc3[nH]ccc23)s1)c1ccccc1 (centres unmarked)
Key: NO

Exercise: Same thing, different molecule: `Nc1ncc(-c2ccc3nccc(-c4ccncc4)c3c2)cc1S(=O)(=O)N1CCCCC1`
Key: YES

Exercise: Same thing, different molecule: `Fc1cc(Cl)ccc1Nc1ccnc2cc(-c3ccc(CN4CCOCC4)o3)ccc12`
Key: YES

Exercise: Same thing, different molecule: `COc1cccc(NC(=O)NCCNc2ccnc(Nc3ccc(F)cc3)n2)c1`
Key: YES

Exercise: Same thing, different molecule: `COC(=O)Nc1nc2ccc(Oc3ccc(NC(=O)Nc4cc(C(F)(F)F)ccc4F)cc3)cc2[nH]1.Cl`
Key: YES

Exercise: Same thing, different molecule: `CSc1ccc(NC2=C(c3ccc(Cl)cc3)C(=O)NC2=O)cc1`
Key: YES

Exercise: Same thing, different molecule: `CN(c1ccc(NC(=O)N2CCN(CCCN3CCOCC3)CC2)cc1)c1ccnc(Nc2ccc(CS(C)(=O)=O)cc2)n1.Cl`
Key: YES

Exercise: Same thing, different molecule: `Cc1ccc(NC(=O)c2ccnc(N3CCCCC3)c2)cc1-c1ccc(C(=O)NCC2CC2)cc1`
Key: YES

Exercise: Same thing, different molecule: `CC(C)c1nc(-c2cccc(NS(=O)(=O)c3c(F)cccc3F)c2)c(-c2ccnc(Nc3ccc(N4CCOCC4)nc3)n2)s1.Cl`
Key: NO

Exercise: Same thing, different molecule: `CCNc1nccc(-c2c(-c3ccc(F)cc3)ncn2C2CCN(C)CC2)n1`
Key: YES

====

- Tested on: ABL1-phosphorylated
- experimental-conditions: concentration: 1 μM, replicates: in singlicate; n = 1
observable: %Inh (%)
Expressed in %, but write only the number.

In [3]: df
Out[3]:
                                   molecule  observable  val
0  Cc1cc(-c2c(-c3ccc(F)cc3)ncn2CCCN2CCOCC2)nc(N)n1 [SB-222517]        %Inh   18
1  Cc1cccc(Nc2nc(NCCN)ncc2C(N)=O)c1 [GSK1292139]        %Inh   28
2  Nc1ncnc2scc(-c3ccc(NC(=O)Cc4cc(F)ccc4F)cc3)c12.O=C(O)C(F)(F)F [SB-731254-M]        %Inh   50

Exercise: Can you look up the measured %Inh of CC(C)c1nc(-c2cccc(NS(=O)(=O)c3c(F)cccc3F)c2)c(-c2ccnc(Nc3ccc(N4CCOCC4)nc3)n2)s1.Cl [GSK1723980] for me?
Key: 95.6

Exercise: Same thing, different molecule: CC(C)NCC(Cc1ccccc1)NC(=O)c1cc(Br)c(-c2ccnc3[nH]ccc23)s1.Cl.Cl (centres unmarked) [GSK1383281]
Key: 14

Exercise: Same thing, different molecule: O=C(Nc1n[nH]c2nc(-c3ccccc3O)ccc12)C1CC1 [SB-711880]
Key: 44

Exercise: Same thing, different molecule: CN(c1ccc2c(c1)nc(NCc1ccccc1)n2C)c1ccnc(Nc2ccc(CS(C)(=O)=O)cc2)n1.Cl [GW811603]
Key: 66

Exercise: Same thing, different molecule: COC(=O)Nc1nc2ccc(Oc3ccc(NC(=O)Nc4cc(C(F)(F)F)ccc4F)cc3)cc2[nH]1.Cl [GW654607]
Key: 57

// data source = paper PMC5540273
